The reported measurements were obtained from patent US20230295310A1.

- assay_system: T1, human CD3 expressed on cells (Jurkat cells; human primary T cells) (human, UniProt P07766 23-207; P04234 22-171; P09693 23-182)
- T1 construct: whole, on cells
- T1 sequence (P07766 23-207, chain 1 of 3): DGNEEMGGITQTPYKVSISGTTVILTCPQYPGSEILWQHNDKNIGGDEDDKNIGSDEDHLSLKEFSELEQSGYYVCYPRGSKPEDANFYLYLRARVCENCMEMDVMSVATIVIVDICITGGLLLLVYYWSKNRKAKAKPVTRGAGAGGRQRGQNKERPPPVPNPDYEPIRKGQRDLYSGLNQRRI
- T1 sequence (P04234 22-171, chain 2 of 3): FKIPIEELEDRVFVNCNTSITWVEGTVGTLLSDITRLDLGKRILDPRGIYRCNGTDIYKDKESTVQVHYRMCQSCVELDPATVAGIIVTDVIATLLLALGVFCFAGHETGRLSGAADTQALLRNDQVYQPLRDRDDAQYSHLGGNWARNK
- T1 sequence (P09693 23-182, chain 3 of 3): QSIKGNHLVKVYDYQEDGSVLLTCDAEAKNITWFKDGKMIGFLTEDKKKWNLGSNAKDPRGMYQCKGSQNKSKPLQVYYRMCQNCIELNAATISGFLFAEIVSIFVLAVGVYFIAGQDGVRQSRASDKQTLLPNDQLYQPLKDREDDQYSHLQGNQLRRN
- assay_explanation: flow cytometry, 25 nM, human primary T cells
measured_metric: Binding (FOI)

mAb 237 (antibody, V domains shown, VH/VL only) VH: EVQLLESGGDLVQPGGSLRLTCAASGFTFRSYAMNWVRQAPGKGLEWVSTISSRGDTTNYADSVKGRFTISRDTSKNTLYLQMDNLRADDTAVYYCSKMFSYYYYYMDVWGKGTTVTVSS VL: SYELTQPLSVSVALGQTARITCGGNNIGSKDVHWYQQKPGQAPVLVIYRDSNRPSGIPERFSGSNSGNTATLTISRAQAGDEADYYCQVWDSRTAVFGGGTQLTAL    293 FOI
mAb 250 (antibody, V domains shown, VH/VL only) VH: QVQLVESGGGVVQPGRSLRLSCAASGFTFSTYGMHWVRQAPGKGLEWVAVLWSDGRSKYYADSVQGRFTISRDNSKNTLFLQMSSLRAEDTAVYYCAREPYYDFWSGYYTGYMDVWGKGTTVTVSS VL: DIQMTQSPSSLSASVGDRVTITCRASQGIRNDLGWYQQKPGKAPKRLIYAASSLQGGVPSRFSGSGSGTEFTLTISSLQPEDFATYYCLQHNSYPRTFGQGTKVEIK    109 FOI
